Origin of the recorded values: ChEMBL document CHEMBL1153955

system: Influenza A virus; assay: Antiviral activity against influenza H1N1 virus in MDCK cells assessed as reduction of virus-induced cytopathicity by visual cytopathic effect scoring method; type: functional, organism-based
measurement.kind: EC50

• Cc1cc(C)cc(S(=O)(=O)c2c(C(=O)NC(C)CS(N)(=O)=O)[nH]c3ccc(Cl)c(F)c23)c1 (centres undefined) = > 4 µM
• Cc1cc(C)cc(S(=O)(=O)c2c(C(=O)NC(C)CC(N)=O)[nH]c3ccc(Cl)c(F)c23)c1 (centres undefined) = > 4 µM
• Cc1cc(C)cc(S(=O)(=O)c2c(C(=O)NCCS(N)(=O)=O)[nH]c3ccc([N+](=O)[O-])cc23)c1 = > 4 µM
• Cc1cc(C)cc(S(=O)(=O)c2c(C(=O)NCCS(N)(=O)=O)[nH]c3ccc(Cl)c(F)c23)c1 = > 4 µM
• Cc1cc(C)cc(S(=O)(=O)c2c(C(=O)NNC(C)C)[nH]c3ccc(Cl)cc23)c1 = > 20 µM
• Cc1cc(C)cc(S(=O)(=O)c2c(C(N)=O)[nH]c3ccc(Cl)cc23)c1 = > 100 µM
• Cc1cc(C)cc(S(=O)(=O)c2c(C(=O)NC(C)CS(N)(=O)=O)[nH]c3ccc(Br)cc23)c1 (centres undefined) = > 800 µM
• Cc1cc(C)cc(S(=O)(=O)c2c(C(=O)NCCC(N)=O)[nH]c3ccc(Cl)cc23)c1 = > 4 µM
• Cc1cc(C)cc(S(=O)(=O)c2c(C(=O)NC(C)CC(N)=O)[nH]c3ccc(Cl)cc23)c1 (centres undefined) = > 4 µM

* * *

assay: Cytotoxicity against MDCK cells by MTS assay; type: cell-based, Canis lupus familiaris; conditions: dog
Recorded CC50, one value per entry.
measurement.kind: CC50 (µM)

- Cc1cc(C)cc(S(=O)(=O)c2c(C(=O)NC(C)CC(N)=O)[nH]c3ccc(Cl)cc23)c1 (configuration not stated): 13.5
- Cc1cc(C)cc(S(=O)(=O)c2c(C(=O)NC(C)C(N)=O)[nH]c3ccc(Br)cc23)c1 (configuration not stated): 1.7
- Cc1cc(C)cc(S(=O)(=O)c2c(C(=O)NC(C)CS(N)(=O)=O)[nH]c3ccc(Br)cc23)c1 (configuration not stated): 1.9
- Cc1cc(C)cc(S(=O)(=O)c2c(C(=O)NC(C)C(N)=O)[nH]c3ccc(Cl)c(F)c23)c1 (configuration not stated): 6.5
- Cc1cc(C)cc(S(=O)(=O)c2c(C(=O)NC(C)CS(N)(=O)=O)[nH]c3ccc([N+](=O)[O-])cc23)c1 (configuration not stated): 9.8
- Cc1cc(C)cc(S(=O)(=O)c2c(C(=O)NC(C)CC(N)=O)[nH]c3ccc(Cl)c(F)c23)c1 (configuration not stated): 6.2
- Cc1cc(C)cc(S(=O)(=O)c2c(C(=O)NC(C)C(N)=O)[nH]c3ccc([N+](=O)[O-])cc23)c1 (configuration not stated): 95.9
- Cc1cc(C)cc(S(=O)(=O)c2c(C(=O)NC(C)C(N)=O)[nH]c3ccc(Cl)cc23)c1 (configuration not stated): 16
- Cc1cc(C)cc(S(=O)(=O)c2c(C(=O)NC(C)CS(N)(=O)=O)[nH]c3ccc(Cl)cc23)c1 (configuration not stated): 12.2
- Cc1cc(C)cc(S(=O)(=O)c2c(C(=O)NCCS(N)(=O)=O)[nH]c3ccc(Cl)c(F)c23)c1: 7.4
- Cc1cc(C)cc(S(=O)(=O)c2c(C(=O)NC(C)CS(N)(=O)=O)[nH]c3ccc(Cl)c(F)c23)c1 (configuration not stated): 7.3
- Cc1cc(C)cc(S(=O)(=O)c2c(C(=O)NCC(N)=O)[nH]c3ccc(Cl)cc23)c1: 44.1
